Values were extracted from the RNAGym collection of RNA variant scans (doi:10.1073/pnas.2313332121).

B1: TPR t1 (parent)
chain: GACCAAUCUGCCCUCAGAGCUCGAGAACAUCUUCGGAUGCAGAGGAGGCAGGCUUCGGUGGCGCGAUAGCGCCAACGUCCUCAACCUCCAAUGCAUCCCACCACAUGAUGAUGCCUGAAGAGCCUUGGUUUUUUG

# Variants of: B1
# experimental.details: polymerase ribozyme fitness, log enrichment relative to wild type (log ratio); higher = more active; in vitro selection for triplet polymerase activity
experimental.readout: polymerase ribozyme fitness (log ratio)
Hey, just send me the number, nothing else.

Looking up A2C C56U , I found its polymerase ribozyme fitness (log ratio) recorded as -0.967

GET /value?item= C70U C88G U125G &field=polymerase ribozyme fitness (log ratio) returns -1.36

Per the record, C82G C99U has polymerase ribozyme fitness (log ratio) of -3.61

polymerase ribozyme fitness (log ratio) reading for G52A C114U : -2.52

// recorded polymerase ribozyme fitness (log ratio) for C86U C114U : -1.7

Note to self: polymerase ribozyme fitness (log ratio) recorded for C22G C49A G117U was -3.11
